# System: T-47D breast
# Test Protocol: NCI tumour cell line growth inhibition, 48 h
Measured GI50 values are reported for all entries that follow.
Measured Property: GI50

| Compound | Value Observed |
| --- | --- |
| C[C@H]1[C@H](C)CC[C@]2(C(=O)O)CC[C@]3(C)C(=CC[C@@H]4[C@@]5(C)CC[C@H](OC(=O)/C=C/c6ccc(O)cc6)C(C)(C)[C@@H]5CC[C@]43C)[C@H]12 | 13.3 µM |
| O=C(OCC1OC(OC(=O)c2cc(O)c(O)c(OC(=O)c3cc(O)c(O)c(O)c3)c2)C(OC(=O)c2cc(O)c(O)c(OC(=O)c3cc(O)c(O)c(O)c3)c2)C(OC(=O)c2cc(O)c(O)c(OC(=O)c3cc(O)c(O)c(O)c3)c2)C1OC(=O)c1cc(O)c(O)c(OC(=O)c2cc(O)c(O)c(O)c2)c1)c1cc(O)c(O)c(OC(=O)c2cc(O)c(O)c(O)c2)c1 (stereo not drawn) | 13 µM |
| Cc1ncc(C(=O)Nc2ccc(CN3CCN(C)CC3)c(C(F)(F)F)c2)cc1C#Cc1cnc(N)c2ncccc12 | 5.36 µM |
| CC(=O)OC1CCC2(C)C(CCC3C4CC=C(C(C)=O)C4(C)OC(=O)CC32)C1 (stereo not drawn) | 1.64 µM |
| O=C(Nc1ccccc1)NS(=O)(=O)c1ccc(N2N=C3c4ccccc4CC3C2c2ccccn2)cc1 (stereo not drawn) | 93 µM |
| C=CC(=O)N1CCC([C@@H]2CCNc3c(C(N)=O)c(-c4ccc(Oc5ccccc5)cc4)nn32)CC1 | 3.49 µM |
| Cc1ccc(N=Nc2c(N)nn(-c3ccccc3)c2N)cc1 | 1.74 µM |
| CNNC(=N\S(=O)(=O)c1cc(C(=O)Nc2ccc(Cl)cc2)c(Cl)cc1SCc1ccccc1)/N=C/c1ccc([N+](=O)[O-])s1 | 7.07 µM |
| Cc1cc2c3ccccc3ccc2[n+]2ccccc12 | 1.86 µM |
| COC(=O)c1ccc2c(c1)C(=O)c1c-2n(CCCN)c(=O)c2cc([N+](=O)[O-])ccc12 | < 0.0173 µM |
| Nc1c(C(=O)c2cccc(C#CCN3CCOCC3)c2)cnn1-c1ccc(F)cc1 | 8.83 µM |
| O=Cc1ccc(Oc2c3ccccc3nc3occc23)cc1 | 11.4 µM |
| CCN(C(=O)CCl)C(C)(C)C(SSSC(c1ccc(Cl)cc1)C(C)(C)N(CC)C(=O)CCl)c1ccc(Cl)cc1 (stereo not drawn) | 5.3 µM |

----------
# System: M14 melanoma
# Test Protocol: NCI tumour cell line growth inhibition, 48 h
Measured Property: TGI (µM)

| Compound | Measured Property | Measurement Qualifier | Value Observed |
| --- | --- | --- | --- |
| ClC1=NC(Cl)C(Cl)=N/C1=N\c1ncn[nH]1 (stereo not drawn) | TGI | = | 7.15 |
| COc1cccc(-n2ncc3c(N/N=C/c4ccc(S(C)(=O)=O)cc4)ncnc32)c1 | TGI | > | 25 |
| COc1c(NC(=O)CC(C)=O)[c]([Hg][O]C(C)=O)c(OC)c(Cl)[c]1[Hg][O]C(C)=O | TGI | = | 25.7 |
| O=P(O)(O)C1CCCC(P(=O)(O)O)N1 (stereo not drawn) | TGI | > | 100 |
| CC1(Br)C(=O)NC(=O)N(C2CC(N=[N+]=[N-])C(CO)O2)C1N=[N+]=[N-] (stereo not drawn) | TGI | > | 100 |
| CC#Cc1cc2c(cc1O)CC[C@@H]1[C@@H]2CC[C@]2(C)[C@@H](O)CC[C@@H]12 | TGI | = | 17.7 |
| CC1(C)CC(OCCCC[P+](c2ccccc2)(c2ccccc2)c2ccccc2)CC(C)(C)N1O | TGI | = | 1.9 |
| COc1ccc2nc(NC(=O)C(=O)C(C(=O)c3ccccc3-c3ccccc3)C3OC(=O)c4ccccc43)sc2c1 (stereo not drawn) | TGI | = | 41.5 |
| COc1ccc2oc(=O)c3c(c2c1C)OC(C)(C)C=C3 | TGI | > | 100 |
| CCO/C=N/C1=C(C#N)C(c2ccc(Cl)cc2)c2c(-c3ccccc3)nn(-c3ccccc3)c2O1 (stereo not drawn) | TGI | = | 20.3 |
| O=C1Oc2ccccc2C(=O)/C1=C/N1C(=O)N/C(=C\c2cccc(O)c2)C1=O | TGI | > | 100 |
| C[C@]12CCC3c4ccc(O)cc4CCC3C1Cc1ccc(O)cc12 (stereo partly drawn) | TGI | = | 13.6 |
| Cc1cc(S(=O)(=O)n2ccnc2Oc2ccccc2)c(SSc2cc(Cl)c(C)cc2S(=O)(=O)n2ccnc2Oc2ccccc2)cc1Cl | TGI | > | 100 |
| C/C1=C\C/C=C(\C)[C@H]2CC(CC/C(C)=C/CC1)[C@@](C)(CO)O2 | TGI | > | 100 |
| Cc1cc2c(cc1C)C(=O)C1(C2)Cc2c(ccc(C)c2C)C1=O (stereo not drawn) | TGI | > | 100 |
| COc1cc(S(=O)(=O)Nc2nc(-c3ccc(N)cc3)cs2)ccc1Cl | TGI | > | 100 |
| Cc1ccc2c(Nc3cccc(Cl)c3F)ncc(NC(=O)c3csc4c(N)ncnc34)c2c1 | TGI | = | 0.608 |
| CC[C@H](C)C1=C(O)[N@+]2([O-])Oc3ccc(-c4c(O)c(O)c(-c5ccc(OC(C)=O)cc5)c(OC(C)=O)c4OC(C)=O)cc3O[C@]2([C@@H](C)CC)C(=O)N1O | TGI | > | 50 |
| COc1ccc2c(c1)CCCN1Cc3cc(OC)c(OC)cc3CC21 (stereo not drawn) | TGI | = | 44.1 |
| O=C(NC(=S)NNC(=S)NNc1ccccc1)c1ccccc1 | TGI | = | 55.6 |
| CO[C@@H]1C=C[C@@]23c4cc5c(cc4C(O)N(CC2O)C3C1)OCO5 (stereo partly drawn) | TGI | = | 12.6 |
| Cc1cc2c3ccccc3ccc2[n+]2ccccc12 | TGI | = | 22.8 |
| Nc1nc(N)c2c(ccc3nccc32)[nH]1 | TGI | > | 79.8 |
| CCC[CH2][Sn]([CH2]CCC)([O]C(=O)c1cc(OC)c(OC)cc1OC)[O]C(=O)c1cc(OC)c(OC)cc1OC | TGI | = | 2.99 |
| O=C1OC(C2=CC(=O)c3ccccc3C2=O)C(Cl)=C1Cl (stereo not drawn) | TGI | > | 100 |
| N#CCN1CCOCCOCCN(CC#N)CCOCCOCC1 | TGI | > | 100 |
| CN(C)c1nc(=NCc2cccs2)ss1 | TGI | > | 10 |
| Cc1cc(S(=O)(=O)NC2=NC(c3ccccc3)c3ccccc3N2)c(S)cc1Cl (stereo not drawn) | TGI | > | 100 |
| CCN(CC)CCn1c2cc3c(cc2c(=O)c2cccnc21)OCO3 | TGI | > | 10 |
| Cc1ccc(S(=O)(=O)SCc2ccccc2CSS(=O)(=O)c2ccc(C)cc2)cc1 | TGI | = | 47.3 |
| CO[C@H]1C[C@@H]2CC[C@@H](C)[C@@](O)(O2)C(=O)C(=O)N2CCCC[C@H]2C(=O)O[C@H]([C@H](C)C[C@@H]2CC[C@@H](OP(C)(C)=O)[C@H](OC)C2)CC(=O)[C@H](C)/C=C(\C)[C@@H](O)[C@@H](OC)C(=O)[C@H](C)C[C@H](C)/C=C/C=C/C=C/1C | TGI | = | 26 |
| COc1ccc(C2CC(=O)CC(c3ccc(OC)cc3)C23C(=O)NC(=S)NC3=O)cc1 (stereo not drawn) | TGI | > | 100 |
| Cc1ccc(C(CC(=O)C(C)(C)CN2CCCCC2)SCCS(=O)(=O)O)cc1 (stereo not drawn) | TGI | = | 50.1 |
| O=C(O)c1ccc(NCc2nc3cc4ccccc4cc3[nH]2)cc1 | TGI | > | 100 |
| O=C(NCCNCCNCCNC(=O)c1cc(-c2ccccc2)nc2ccccc12)c1cc(-c2ccccc2)nc2ccccc12 | TGI | = | 3.39 |
| COC(=O)c1c2c(c(-c3ccccc3)c3c1-c1nc(Cl)ccc1CC3)CCc1ccc(Cl)nc1-2 | TGI | > | 100 |
| CCN(CC)CCOC(=O)CCN1CC2CCC(CC2)C1 | TGI | > | 100 |
| Cc1ccsc1C(=O)C(CC(=O)c1cccs1)c1ccsc1 (stereo not drawn) | TGI | > | 100 |
